- system_name: TPR-MET Ba/F3 cells (Homo sapiens)
- Construct: TPR-MET Ba/F3 cells were created by stably transducing the human TPR-MET gene into Ba/F3 cells using a retroviral system; fused on or other part: P12270 (Nucleoprotein TPR)
- Sequence (P08581 whole entry, change not shown, the tested form may be a part): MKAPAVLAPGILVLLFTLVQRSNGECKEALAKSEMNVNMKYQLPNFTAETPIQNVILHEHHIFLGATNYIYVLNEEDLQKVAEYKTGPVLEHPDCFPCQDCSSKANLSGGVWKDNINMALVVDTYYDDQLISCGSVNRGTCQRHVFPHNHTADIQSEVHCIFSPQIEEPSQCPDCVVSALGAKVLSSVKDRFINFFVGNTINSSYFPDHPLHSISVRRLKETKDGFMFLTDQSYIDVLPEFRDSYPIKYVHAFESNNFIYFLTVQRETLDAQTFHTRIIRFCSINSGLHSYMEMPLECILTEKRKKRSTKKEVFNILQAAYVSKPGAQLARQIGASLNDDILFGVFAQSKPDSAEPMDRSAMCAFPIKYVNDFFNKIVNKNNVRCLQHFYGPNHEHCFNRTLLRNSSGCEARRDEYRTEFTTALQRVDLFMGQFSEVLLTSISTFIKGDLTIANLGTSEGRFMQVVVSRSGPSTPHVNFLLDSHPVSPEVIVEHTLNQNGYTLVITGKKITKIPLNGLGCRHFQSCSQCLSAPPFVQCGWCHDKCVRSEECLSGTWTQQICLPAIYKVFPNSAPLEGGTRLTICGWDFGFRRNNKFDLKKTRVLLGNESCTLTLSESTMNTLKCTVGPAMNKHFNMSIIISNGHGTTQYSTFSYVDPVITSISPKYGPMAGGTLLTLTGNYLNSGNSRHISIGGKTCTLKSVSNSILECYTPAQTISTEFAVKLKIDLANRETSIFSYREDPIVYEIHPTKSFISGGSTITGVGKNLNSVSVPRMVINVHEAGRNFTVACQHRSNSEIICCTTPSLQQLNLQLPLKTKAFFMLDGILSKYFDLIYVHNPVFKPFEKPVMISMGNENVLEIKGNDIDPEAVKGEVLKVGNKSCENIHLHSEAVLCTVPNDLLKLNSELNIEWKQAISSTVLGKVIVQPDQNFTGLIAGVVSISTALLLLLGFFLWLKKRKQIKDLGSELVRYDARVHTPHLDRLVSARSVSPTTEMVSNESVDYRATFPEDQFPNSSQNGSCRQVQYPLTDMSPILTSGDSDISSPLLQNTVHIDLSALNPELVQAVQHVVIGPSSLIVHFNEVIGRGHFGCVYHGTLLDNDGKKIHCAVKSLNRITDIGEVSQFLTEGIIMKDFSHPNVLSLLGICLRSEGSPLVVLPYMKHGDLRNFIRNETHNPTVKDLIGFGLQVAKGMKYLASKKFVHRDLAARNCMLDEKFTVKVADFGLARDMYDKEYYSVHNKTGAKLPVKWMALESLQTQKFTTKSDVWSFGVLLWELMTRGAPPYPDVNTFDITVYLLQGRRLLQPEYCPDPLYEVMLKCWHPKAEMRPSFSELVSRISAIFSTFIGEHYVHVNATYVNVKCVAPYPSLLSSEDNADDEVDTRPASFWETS
- protocol_notes: 96-well XTT cell survival assay (Ba/F3 cells)
- Type: cell-based
- setup_conditions: cells marked (BaF3), 72 hours; read-out: XTT Assay IC50 (BaF3)
Field: GI50. Provide a value for each of the molecules that follow.

Record request: GI50 value, item CNC(=O)c1ccc(-c2ccc3nnc(Sc4ccc5ncn(C)c5c4)n3n2)cc1F
≤ 100 nM

Form field: reported GI50 of N#Cc1cccc(-c2ccc3nnc(Sc4cc5cccnc5cc4F)n3n2)c1
≤ 100 nM

Would you kindly share the measured GI50 for N#Cc1cccc(-c2ccc3nnc(Sc4ccc5ncsc5c4)n3n2)c1 ?
100 to 1000 nM

GI50 lookup needed for CNC(=O)c1ccc(-c2ccc3nnc(Sc4cc5scnc5cc4F)n3n2)cc1F , thanks.
≤ 100 nM

Reported GI50 for N#Cc1cccc(-c2ccc3nnc(Sc4ccc5ncccc5c4)n3n2)c1 : what is it?
≤ 100 nM

---

- system_name: UniProt:P08581
- protocol_notes: MET luminescence-based enzyme assay (Kinase-Glo)
- Format: biochemical
Counter-ions that a name gives are not always drawn.
observation_type: IC50

Given the entry Cc1ccc2nnc(Sc3cc4cc(-c5cnn(C)c5)cnc4cc3F)n2n1 , what IC50 was observed with UniProt:P08581?
< 100 nM

# value lookup — system UniProt:P08581, readout IC50, item Cc1ccc2nnc(Sc3ccc4ncc(-c5cnn(C)c5)cc4c3)n2n1
< 100 nM

// fetch UniProt:P08581 IC50 for N#Cc1cccc(-c2ccc3nnc(Sc4cc5cccnc5cc4F)n3n2)c1
< 100 nM

For the record Cc1cc2cc(Sc3nnc4ccc(-c5cnn(C)c5)nn34)ccc2nc1N , what value of IC50 is listed for UniProt:P08581?
100 to 1000 nM

Provide value of IC50 for this record tested with UniProt:P08581: Fc1cccc(-c2ccc3nnc(Sc4ccc5ncsc5c4)n3n2)c1
100 to 1000 nM

Test system UniProt:P08581; read-out IC50; what value for CNC(=O)c1ccc(-c2ccc3nnc(Sc4cc5cccnc5cc4F)n3n2)cc1F ?
< 100 nM

Return IC50 measured with UniProt:P08581 given this compound: Fc1cccc(-c2ccc3nnc(Sc4ccc5nncn5c4)n3n2)c1
1000 to 10000 nM

Give recorded IC50 with UniProt:P08581 for the following compound: CN(C)CCn1cnc2ccc(Sc3nnc4ccc(-c5cnn(C)c5)nn34)cc21 [Compound 32, formic acid salt]
100 to 1000 nM

What measured IC50 is associated with Cn1cc(-c2ccc3nnc(Sc4ccc5c(ccc[n+]5[O-])c4)n3n2)cn1 on UniProt:P08581?
1000 to 10000 nM

Could you share what IC50 was measured for Cc1ccc2nnc(Sc3ccc4ncc(-c5cnn(C)c5)cc4c3F)n2n1 , tested on UniProt:P08581?
< 100 nM

Form: Entry = Cc1ccc2nnc(Sc3ccc4ncc(-c5cnn(C6CNC6)c5)cc4c3)n2n1 | System = UniProt:P08581 | IC50 = ____
< 100 nM

What is its IC50 for UniProt:P08581? Entry: Cc1ccc2nnc(Sc3c[nH]c4ncc(-c5cnn(C)c5)cc34)n2n1
< 100 nM

Request - read-out IC50 | tested on UniProt:P08581 | compound Cc1cnc2ccc(Sc3nnc4ccc(C)nn34)cc2c1
100 to 1000 nM

// map CCc1ccc2nnc(Sc3ccc4ncc(-c5cnn(C)c5)cc4c3)n2n1 to recorded IC50 (system: UniProt:P08581)
< 100 nM

Enter reported IC50 observed with UniProt:P08581 for Cn1cc(-c2ccc3nnc(Sc4ccc5nccc(N)c5c4)n3n2)cn1 [Compound 34, trifluoroacetic acid salt]
100 to 1000 nM

Form: Entry = Cn1cc(-c2ccc3nnc(Sc4ccc5ncccc5c4[N+](=O)[O-])n3n2)cn1 | System = UniProt:P08581 | IC50 = ____
100 to 1000 nM

Query the reported IC50 for UniProt:P08581; item: Cc1ccc2nnc(Sc3ccc4ncc(-c5cnn(C(C)(C)C(=O)O)c5)cc4c3)n2n1
< 100 nM

Could you share what IC50 was measured for Cn1cc(-c2ccc3nnc(Sc4ccc5ncc(NC(=O)OC(C)(C)C)cc5c4)n3n2)cn1 , tested on UniProt:P08581?
< 100 nM

What measured IC50 is associated with Cc1ccc2nnc(Sc3ccc4ncc(-c5cnn(C6CN(C)C6)c5)cc4c3)n2n1 on UniProt:P08581?
< 100 nM
